As shown below, each of these compounds has a reported pIC50 value.
TARGET_OR_SYSTEM: mineralocorticoid receptor (MR) (Homo sapiens, UniProt P08235)
ASSAY_TEXT: Cell-based Gal4 response element-controlled luciferase reporter assay (MR antagonism)
MEASUREMENT_CONDITIONS: Huh7 human liver cells transfected with Gal4 DBD-MR LBD fusion and luciferase reporter; block of agonist-induced activation; overnight incubation
The quantity pIC50 is defined as the negative base-10 logarithm of the molar concentration.

In the examples that follow, each entry is paired with its recorded pIC50.
COMPOUND: Cc1cc(N2N=C3c4ccc(O)cc4CC[C@@H]3[C@@H]2c2ccc(F)cc2)ccc1C#N [Example 81]
READOUT_LABEL: pIC50
READOUT_VALUE: 7.46

COMPOUND: Cc1cc(N2N=C3c4ccc(C(=O)O)cc4OCC3C2C2CCCC2)ccc1C#N (racemic) [Example 61]
READOUT_LABEL: pIC50
READOUT_VALUE: 7.41

COMPOUND: Cc1cc(N2N=C3c4ccc(C(=O)O)cc4CCC3C2C2CCCC2)ccc1C#N (racemic) [Example 21]
READOUT_LABEL: pIC50
READOUT_VALUE: 8.40

COMPOUND: N#Cc1ccc(N2N=C3c4ccc(C(=O)O)cc4CC[C@@H]3[C@@H]2c2ccco2)cc1Cl [Example 44]
READOUT_LABEL: pIC50
READOUT_VALUE: 7.80

Could you now look at the following compound, please?
**Query** State, in one line, measured pIC50 of CS(=O)(=O)NC(=O)c1ccc2c(c1)CC[C@H]1C2=NN(c2ccc(C#N)c(Cl)c2)[C@H]1c1ccc(F)cc1 (racemic) [Example 113]
**Result** 6.00

---

TARGET_OR_SYSTEM: mineralocorticoid receptor (MR) (Homo sapiens)
ASSAY_TEXT: Cell-based Gal4 response element-controlled luciferase reporter assay (MR antagonism)
MEASUREMENT_CONDITIONS: Huh7 human liver cells transfected with Gal4 DBD-MR LBD fusion and luciferase reporter; block of agonist-induced activation; overnight incubation
pIC50: −log10 of the molar value. Where a name gives a salt, the structure may show the parent alone.
Binary call on pIC50: 1 (yes) from 7 upward, 0 (no) beneath that.

COMPOUND: N#Cc1ccc(N2N=C3c4ccc(C(=O)O)cc4CCC3C2c2ccc(F)cc2)cn1 (racemic) [Example 14, trifluoroacetate]
ANSWER_LABEL: 0 (no)

**Query** Decide: pIC50 of `N#Cc1ccc(N2N=C3c4ccc(C(=O)O)cc4CC[C@H]3[C@H]2c2ccco2)cc1Cl` >= 7?
**Result** 0 (no)

**Query** Decide: pIC50 of N#Cc1ccc(N2N=C3c4ccc(C(=O)O)cc4CCC3C2C2=CCCC2)cc1Cl (racemic) >= 7?
**Result** 1 (yes)

**Query** Decide: pIC50 of CS(=O)(=O)CCNC(=O)c1ccc2c(c1)CCC1C2=NN(c2ccc(C#N)c(Cl)c2)C1c1ccc(F)cc1 (racemic) [Example 97] >= 7?
**Result** 1 (yes)

**Query** Decide: pIC50 of `N#Cc1ccc(N2N=C3c4ccc(C(=O)O)cc4OC[C@H]3[C@H]2c2ccc(F)cc2)cc1` >= 7?
**Result** 0 (no)

**Query** Decide: pIC50 of `N#Cc1ccc(N2N=C3c4ccc(C(=O)O)cc4OC[C@@H]3[C@@H]2C2CCCC2)cc1Cl` >= 7?
**Result** 1 (yes)

**Query** Decide: pIC50 of Cc1nc(N2N=C3c4ccc(C(=O)O)cc4CCC3C2C2CCCC2)ccc1C#N (racemic) >= 7?
**Result** 1 (yes)

---

TARGET_OR_SYSTEM: UniProt P08235
ASSAY_TEXT: Cell-based Gal4 response element-controlled luciferase reporter assay (MR antagonism)
MEASUREMENT_CONDITIONS: Huh7 human liver cells transfected with Gal4 DBD-MR LBD fusion and luciferase reporter; block of agonist-induced activation; overnight incubation
pIC50: −log10 of the molar value.
Binary call on pIC50: True from 7 upward, False beneath that.

Here's what some known entries look like.
COMPOUND: CS(=O)(=O)CCNC(=O)c1ccc2c(c1)CC[C@H]1C2=NN(c2ccc(C#N)c(Cl)c2)[C@H]1C1CCCC1 [Example 114]
ANSWER_LABEL: True

COMPOUND: COc1cc(N2N=C3c4ccc(C(=O)O)cc4CC[C@@H]3[C@@H]2C2CCCC2)ccc1C#N [Example 26]
ANSWER_LABEL: True

COMPOUND: N#Cc1ccc(N2N=C3c4ccc(C(=O)O)cc4CCC3C2C2CCOC2)cc1Cl (racemic) [Example 34]
ANSWER_LABEL: False

COMPOUND: Cc1cc(N2N=C3c4ccc(C(=O)O)cc4CC[C@H]3[C@H]2C2CCCC2)ccc1C#N (single isomer, unassigned) [Example 23]
ANSWER_LABEL: False

COMPOUND: N#Cc1ccc(N2N=C3c4ccc(C(=O)O)cc4CC[C@@H]3[C@@H]2c2ccc(F)cc2)cc1Cl [Example 3]
ANSWER_LABEL: True

COMPOUND: N#Cc1ccc(N2N=C3c4ccc(C(=O)O)cc4CCC3C2c2ccc(F)cc2)cc1Cl (racemic) [Example 2]
ANSWER_LABEL: False

COMPOUND: N#Cc1ccc(N2N=C3c4ccc(C(=O)O)cc4OCC3C2c2ccc(F)cc2)cc1C(F)(F)F (racemic) [Example 54]
ANSWER_LABEL: False

COMPOUND: N#Cc1ccc(N2N=C3c4ccc(C(=O)O)cc4CCC3C2c2ccco2)cc1Cl (racemic) [Example 43]
ANSWER_LABEL: True

**Query** Decide: pIC50 of COc1cc(N2N=C3c4ccc(C(=O)O)cc4CCC3C2C2CCCC2)ccc1C#N (racemic) [Example 25] >= 7?
**Result** True

**Query** Decide: pIC50 of N#Cc1ccc(N2N=C3c4ccc(C(=O)O)cc4CCC3C2c2ccno2)cc1 (racemic) [Example 52] >= 7?
**Result** False

---

TARGET_OR_SYSTEM: mineralocorticoid receptor (MR) (Homo sapiens, UniProt P08235)
Sequence (P08235 726-964 limits assumed): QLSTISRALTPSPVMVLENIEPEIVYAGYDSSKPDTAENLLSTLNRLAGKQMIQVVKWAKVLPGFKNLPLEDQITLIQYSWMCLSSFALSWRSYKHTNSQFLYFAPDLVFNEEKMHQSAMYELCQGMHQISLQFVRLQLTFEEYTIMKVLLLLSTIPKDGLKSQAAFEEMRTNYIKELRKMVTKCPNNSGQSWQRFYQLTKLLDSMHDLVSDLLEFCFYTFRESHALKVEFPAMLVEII
ASSAY_TEXT: Cell-based Gal4 response element-controlled luciferase reporter assay (MR antagonism)
MEASUREMENT_CONDITIONS: Huh7 human liver cells transfected with Gal4 DBD-MR LBD fusion and luciferase reporter; block of agonist-induced activation; overnight incubation
READOUT_LABEL: pIC50
The quantity pIC50 is defined as the negative base-10 logarithm of the molar concentration.

In the examples that follow, each entry is paired with its recorded pIC50.
COMPOUND: C[C@]12CCc3cc(C(=O)O)ccc3C1=NN(c1ccc(C#N)c(Cl)c1)[C@H]2C1CCCC1
TARGET_OR_SYSTEM: mineralocorticoid receptor (MR) (Homo sapiens, UniProt P08235)
pIC50: 7.60
--
COMPOUND: Cc1cc(N2N=C3c4ccc(C(=O)O)cc4CCC3C2C2=CCCC2)ccc1C#N (racemic)
TARGET_OR_SYSTEM: mineralocorticoid receptor (MR) (Homo sapiens, UniProt P08235)
pIC50: 8.15
--
COMPOUND: N#Cc1ccc(N2N=C3c4ccc(O)cc4CCC3C2c2ccc(F)cc2)cc1C(F)(F)F (racemic)
TARGET_OR_SYSTEM: mineralocorticoid receptor (MR) (Homo sapiens, UniProt P08235)
pIC50: 7.11
--
COMPOUND: N#Cc1ccc(N2N=C3c4ccc(C(=O)O)cc4OC[C@H]3[C@H]2C2CCCC2)cc1
TARGET_OR_SYSTEM: mineralocorticoid receptor (MR) (Homo sapiens, UniProt P08235)
pIC50: 5.09
--
COMPOUND: N#Cc1ccc(N2N=C3c4ccc(C(=O)O)cc4CC[C@H]3[C@H]2c2ccc(F)cc2)cc1Cl
TARGET_OR_SYSTEM: mineralocorticoid receptor (MR) (Homo sapiens, UniProt P08235)
pIC50: 5.46
--
COMPOUND: Cc1cc(N2N=C3c4ccc(C(=O)O)cc4OCC3C2C2CC2)ccc1C#N (racemic)
TARGET_OR_SYSTEM: mineralocorticoid receptor (MR) (Homo sapiens, UniProt P08235)
pIC50: 6.15

**Query** State, in one line, measured pIC50 of CCN(CC)CCN(CCN(CC)CC)C(=O)c1ccc2c(c1)CC[C@H]1C2=NN(c2ccc(C#N)c(Cl)c2)[C@H]1c1ccc(F)cc1 (racemic) [Example 107, bistrifluoroacetate]
**Result** 6.28

**Query** State, in one line, measured pIC50 of CC(C)C1C2COc3cc(C(=O)O)ccc3C2=NN1c1ccc(C#N)c(Cl)c1 (racemic)
**Result** 6.23

**Query** State, in one line, measured pIC50 of COC(=O)c1ccc2c(c1)CCC1C2=NN(c2ccc(C#N)c(OCc3ccccc3)c2)C1C1CCCC1 (racemic)
**Result** 6.35

**Query** State, in one line, measured pIC50 of N#Cc1ccc(N2N=C3c4ccc(O)cc4CCC3C2c2ccc(F)cc2)cc1 (racemic) [Example 89]
**Result** 6.15

**Query** State, in one line, measured pIC50 of CCOC(=O)c1ccc2c(c1)CCC1C2=NN(c2ccc(C#N)c(Cl)c2)C1c1ccc(F)cc1 (centres unmarked)
**Result** 5.97

Numbers sourced from patent US7781428B2.
